targetUnderTest: UniProt P56373
assayProtocol: Evaluation of human P2X3 receptor inhibitory activity (Fluo-3 calcium fluorescence, FDSS 3000, ATP stimulation)
Type: cell-based
appliedConditions: C6BU-1 cells stably expressing human P2X3 receptor
pIC50: −log10 of the molar value.
Rule: pIC50 under 7 gives false, otherwise true.

Tell me whether pIC50 is at least 7 here: `COC(=O)[C@H](C)[C@H](C)n1c(=O)[nH]/c(=N\c2ccc(N3CCCCC3)cc2)n(Cc2ccc(C)cc2)c1=O`
true

Please indicate if the recorded pIC50 for `CC(C)n1c(=O)n(Cc2ccc(Cl)cc2)c(=O)n(Cc2ccc(C(F)(F)F)cc2)c1=O` meets or exceeds 7.
false

---

targetUnderTest: human P2X3 receptor (Homo sapiens (Human))
assayProtocol: Evaluation of human P2X3 receptor inhibitory activity (Fluo-3 calcium fluorescence, FDSS 3000, ATP stimulation)
Assay type: cell-based
appliedConditions: C6BU-1 cells stably expressing human P2X3 receptor, Fluo-3 fluorescence, FDSS 3000
Note to self: class labels come from recorded IC50, ranges listed here: bucket 1: < 20 nM; bucket 2: ≥ 20 nM and < 100 nM; bucket 3: ≥ 100 nM

• CCOC(=O)CCn1c(=O)[nH]/c(=N\c2ccc3nc(C(C)C)sc3c2)n(Cc2ccc(C)cc2)c1=O = bucket 1
• COC(=O)[C@@H](C)Cn1c(=O)[nH]/c(=N\c2ccc(C=C(C)C)c(F)c2)n(Cc2ccc(C)cc2)c1=O = bucket 2
• CCOc1ccc(/N=c2\[nH]c(=O)n([C@@H](C)[C@@H](C)C(=O)O)c(=O)n2Cc2ccc(C)cc2)cc1Cl = bucket 1
• Cc1ccc(Cn2c(=O)n(C[C@H](C)C(=O)O)c(=O)[nH]/c2=N\c2ccc(OC3CCOCC3)nc2)cc1 = bucket 3
• CCCOc1ccc(/N=c2\[nH]c(=O)n(CC3(C(=O)O)CC3)c(=O)n2Cc2ccc(Cl)cc2)cc1Cl = bucket 2

Consider `COC(=O)CCn1c(=O)[nH]/c(=N\c2ccccc2NC(C)=O)n(Cc2ccc(C)cc2)c1=O` . To which IC50 class does it belong?
bucket 3

Which band does `C[C@@H](C(=O)O)[C@H](C)n1c(=O)[nH]/c(=N\c2ccc3ncsc3c2)n(Cc2ccc(Cl)cc2)c1=O` fall in?
bucket 3

# classify by IC50 band: `CCOC(=O)CCn1c(=O)[nH]/c(=N\c2ccc(O[C@H](C)C(F)(F)F)cc2)n(Cc2ccc(C)cc2)c1=O`
bucket 1

Bin this entry: `CCOc1ccc(/N=c2\[nH]c(=O)n([C@@H](C)[C@@H](C)C(=O)OC)c(=O)n2Cc2ccc(Cl)cc2)cc1Cl`
bucket 1

Which of the defined bands does the recorded IC50 of `Cc1cc(/N=c2\[nH]c(=O)n(CC3COC(C)(C)OC3)c(=O)n2Cc2ccc(Cl)cc2)ccc1OC(C)C` sit within?
bucket 1

Any idea which band `COc1noc2cc(/N=c3\[nH]c(=O)n([C@@H](C)[C@@H](C)C(=O)O)c(=O)n3Cc3ccc(Cl)cc3)ccc12` is in?
bucket 3

Note: place this compound into its band. Item: `COc1ccc(COc2cc(Cn3c(=O)[nH]/c(=N\c4ccc(OC(C)C)c(F)c4)n(Cc4ccc(Cl)cc4)c3=O)on2)cc1`
bucket 2

Which category fits this record: `C[C@@H](C(=O)O)[C@H](C)n1c(=O)[nH]/c(=N\c2ccc3c(c2)OC(F)(F)C(F)(F)O3)n(Cc2ccc(Cl)cc2)c1=O`
bucket 3

Assign a bin to CC(C)Oc1ccc(/N=c2\[nH]c(=O)n(CCC(=O)O)c(=O)n2CCC2C[C@H]3CC[C@@H]2C3)cc1F (some centres unmarked)
bucket 3

Kindly identify the class of `Cc1ccc(Cn2c(=O)n(C[C@H](C)C(=O)O)c(=O)[nH]/c2=N\c2ccc(OC(F)(F)F)cc2)cc1` .
bucket 3

Which IC50 category applies to `C[C@@H](Cn1c(=O)[nH]/c(=N\c2ccc(O[C@H](C)C(F)(F)F)cc2)n(Cc2ccc(Cl)cc2)c1=O)C(=O)O` here?
bucket 2

Place this compound in its band: `CCc1oc2ccc(/N=c3\[nH]c(=O)n(CCNC(C)=O)c(=O)n3Cc3ccc(Cl)cc3)cc2c1C`
bucket 1

---

# pIC50 values compiled below
targetUnderTest: human P2X3 receptor (Homo sapiens (Human))
assayProtocol: Evaluation of human P2X3 receptor inhibitory activity (Fluo-3 calcium fluorescence, FDSS 3000, ATP stimulation)
Assay type: cell-based
appliedConditions: C6BU-1 cells stably expressing human P2X3 receptor
Reminder that pIC50 means the negative base-10 logarithm of the concentration expressed in mol/L.

• CCn1c(=O)[nH]/c(=N\c2ccc(Oc3ccc(C(=O)O)o3)cc2)n(Cc2ccc(Cl)cc2)c1=O [Compound I-2152] = 7.39
• CNC(=O)Cn1c(=O)[nH]/c(=N\c2ccc(OCC3CC3)cc2)n(Cc2ccc(Cl)cc2)c1=O [Compound I-1942] = 7.31
• CCn1c(=O)[nH]/c(=N\c2ccc(OCCc3ccccn3)cc2)n(Cc2ccc(Cl)cc2)c1=O [Compound I-2201] = 7.04
• Cc1ccc(Oc2ccc(/N=c3\[nH]c(=O)n(CCC(=O)O)c(=O)n3Cc3ccc(Cl)cc3)cc2)c(C)n1 [Compound I-1413] = 7.14

I am curious: what pIC50 value has been reported for CCn1c(=O)[nH]/c(=N\c2ccc(Oc3ccnc(OC)n3)cc2)n(Cc2ccc(Cl)cc2)c1=O [Compound I-2008] ?
8.15

---

targetUnderTest: human P2X3 receptor (Homo sapiens (Human))
assayProtocol: Evaluation of human P2X3 receptor inhibitory activity (Fluo-3 calcium fluorescence, FDSS 3000, ATP stimulation)
Assay type: cell-based
appliedConditions: human P2X3 receptor, Test Example 1
quantityKind: pIC50
Scale: pIC50 equals -log10([C]), with [C] in mol/L.

Please review the entries below; each comes with its answer.
- CC1(Cn2c(=O)[nH]/c(=N\c3ccc(Oc4ccon4)cc3)n(Cc3ccc(F)cc3)c2=O)COC(C)(C)OC1: 8.22
- CC(CO)(CO)Cn1c(=O)[nH]/c(=N\c2ccc(Oc3ccon3)c(F)c2)n(Cc2ccc(F)cc2)c1=O: 7.96

Then there is this molecule:
// pIC50 lookup, key: `CCCOc1ccc(/N=c2\[nH]c(=O)n(C[C@H](C)C(=O)OC)c(=O)n2Cc2ccc(C)cc2)cc1Cl`
7.92

---

# reported IC50; entries follow
targetUnderTest: human P2X3 receptor (Homo sapiens (Human), UniProt P56373)
Sequence (P56373 whole entry): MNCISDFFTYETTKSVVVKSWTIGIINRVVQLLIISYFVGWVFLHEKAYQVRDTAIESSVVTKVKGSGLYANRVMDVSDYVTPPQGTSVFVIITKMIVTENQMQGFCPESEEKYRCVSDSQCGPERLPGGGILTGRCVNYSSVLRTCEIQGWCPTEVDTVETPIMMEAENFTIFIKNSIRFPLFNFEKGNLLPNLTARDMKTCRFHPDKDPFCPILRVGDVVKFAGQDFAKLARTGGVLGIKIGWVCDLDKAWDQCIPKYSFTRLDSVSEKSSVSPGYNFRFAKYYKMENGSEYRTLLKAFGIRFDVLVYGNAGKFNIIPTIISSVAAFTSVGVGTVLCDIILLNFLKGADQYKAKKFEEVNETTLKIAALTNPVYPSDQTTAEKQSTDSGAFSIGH
assayProtocol: Evaluation of human P2X3 receptor inhibitory activity (Fluo-3 calcium fluorescence, FDSS 3000, ATP stimulation);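 also: stimulus was 50 nM ATP with fluorescence followed for 3 min, and the response per well was peak post-ATP fluorescence divided by the reading at measurement start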
Format: cell-based
appliedConditions: C6BU-1 cells stably expressing human P2X3 receptor
Answer in nM, number only, no unit symbol.

- Cc1cc(/N=c2\[nH]c(=O)n(Cc3cccc(C(=O)O)n3)c(=O)n2Cc2ccc(Cl)cc2)ccc1OC(C)C [Compound I-0801]: 10
- Cc1ccc(Cn2c(=O)n(CCC(=O)O)c(=O)[nH]/c2=N\c2ccc(OC3CCC3)c(C)c2)cc1 [Compound I-1406]: 64
- COC(=O)[C@@H](C)Cn1c(=O)[nH]/c(=N\c2ccc(N3CCCCCC3)cc2)n(Cc2ccc(C)cc2)c1=O [Compound I-1234]: 230

Query: IC50; subject: Cc1cc(/N=c2\[nH]c(=O)n(Cc3cccn(CCOC4CCCCO4)c3=O)c(=O)n2Cc2ccc(Cl)cc2)ccc1OC(C)C (stereo not drawn) [Compound I-0712]
25

Give its IC50 value. Item: COc1cc(/N=c2\[nH]c(=O)n(CCOC3CCCCO3)c(=O)n2Cc2ccc(Cl)cc2)ccc1OC(C)C (stereo not drawn) [Compound I-2005]
3

Param item = Cn1c(=O)[nH]/c(=N\c2ccc(Oc3ccnc(C(=O)O)c3)cc2)n(Cc2ccc(Cl)cc2)c1=O [Compound I-2099] ; retrieve measured IC50.
8

Could you share which IC50 value was measured for COC(=O)CCn1c(=O)[nH]/c(=N\c2ccc(OC(C)C)c(Cl)c2)n(Cc2ccc(C)cc2)c1=O [Compound I-2023] ?
4

Quick one: IC50 for Cc1cc(/N=c2\[nH]c(=O)n([C@@H]3CCOC3=O)c(=O)n2Cc2ccc(Cl)cc2)ccc1OC(C)C [Compound I-0808] ?
203

Field request: IC50 | item: COC(=O)[C@@H](C)Cn1c(=O)[nH]/c(=N\c2cnc(OC3CCC3)c(C)c2)n(Cc2ccc(C)cc2)c1=O [Compound I-1478]
19

---

In this section, each of the compounds is paired with its reported IC50.
targetUnderTest: UniProtKB P56373
assayProtocol: Evaluation of human P2X3 receptor inhibitory activity (Fluo-3 calcium fluorescence, FDSS 3000, ATP stimulation)
Format: cell-based
appliedConditions: C6BU-1 cells stably expressing human P2X3 receptor

• CC(C)Oc1ccc(/N=c2\[nH]c(=O)n(C[C@H](O)CO)c(=O)n2Cc2ccc(Cl)cc2)cc1Cl = 6 nM

What IC50 value was documented for this compound, `CNC(=O)C1(Cn2c(=O)[nH]/c(=N\c3ccc(OC(C)C)c(C)c3)n(Cc3ccc(Cl)cc3)c2=O)CC1` ?
15 nM

Given the entry `CCn1c(=O)[nH]/c(=N\c2ccc(Oc3ccnc(C(=O)NC)c3)cc2)n(Cc2ccc(F)cc2)c1=O` , report its measured IC50.
12 nM

Can you share its IC50? I mean this compound: `COC(=O)[C@@H](C)Cn1c(=O)[nH]/c(=N\c2ccc(OC(C)C)c(C)c2)n(Cc2ccc(C)cc2)c1=O`
8 nM

All values here come from patent US9718790B2.
